Target Or System: IRAK-4 (Homo sapiens, UniProt Q9NWZ3)
Sequence (Q9NWZ3 whole entry): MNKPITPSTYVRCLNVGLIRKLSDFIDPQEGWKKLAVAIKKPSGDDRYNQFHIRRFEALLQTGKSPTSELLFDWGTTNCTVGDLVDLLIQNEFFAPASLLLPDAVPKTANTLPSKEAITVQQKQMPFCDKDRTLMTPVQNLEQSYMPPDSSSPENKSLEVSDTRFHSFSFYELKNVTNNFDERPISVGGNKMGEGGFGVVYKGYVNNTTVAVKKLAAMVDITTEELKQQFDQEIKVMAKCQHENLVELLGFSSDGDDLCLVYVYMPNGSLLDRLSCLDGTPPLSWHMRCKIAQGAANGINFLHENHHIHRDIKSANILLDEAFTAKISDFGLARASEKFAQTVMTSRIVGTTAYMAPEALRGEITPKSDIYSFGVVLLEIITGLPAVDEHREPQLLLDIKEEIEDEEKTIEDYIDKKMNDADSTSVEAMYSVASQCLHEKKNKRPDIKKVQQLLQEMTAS
Method Notes: IRAK-4 ELISA, PBMC degradation
Format: cell-based
Set-up: endogenous in cells; host or cells: PBMC
Conditions: treated overnight
Experimental: Reagents: Human IRAK-4 Matched Antibody Pair Kit (Abcam ab218182) and ELISA Accessory Pack (Abcam ab210905). Cell Treatment and Lysis: 1. OCI-Ly10: 200,000 cells are seeded at 1×10^6/ml in 96-well U-bottom plates 200 ul per well, treated with compound the same day. Incubate overnight. 2. PBMC: 800,000 cells are seeded at 2×10^6/ml in 96-well U-bottom deep-well plates, 400 ul per well, treated with compound the same day. […] Cell lysate is collected and analyzed by ELISA for IRAK-4 levels.
Measurement Kind: Dmax

# Compound, Val
records = [
    ("CC(C)Oc1cc2c(cc1NC(=O)c1cnn3cccnc13)CN(C1CCN(CC3(F)CN(c4ccc(C(=O)NC5CCC(=O)NC5=O)c(F)c4)C3)CC1)C2=O (stereo not drawn) [Example 297]", "≥ 90%"),
    ("O=C1CCC(N2C(=O)c3ccc(N4CCC(CN5CCC(n6cc7cc(NC(=O)c8cnn9cccnc89)c(N8CCC(N9CCC9)CC8)cc7n6)CC5)CC4)cc3C2=O)C(=O)N1 (stereo not drawn) [Example 150]", "80 to 90%"),
    ("Cn1c(=O)n(C2CCC(=O)NC2=O)c2cccc(N3CCC(CN4CCC(n5cc6cc(NC(=O)c7cnn8cccnc78)c(OCC7CC7)cc6n5)CC4)CC3)c21 (stereo not drawn) [Example 390]", "≥ 90%"),
]

---

Let's look at some compounds and their measured DC50.
Target Or System: IRAK-4 (Homo sapiens)
Method Notes: IRAK-4 ELISA, OCI-Ly10 degradation
Type: cell-based
Set-up: endogenous in cells
Conditions: OCI-Ly10 cells, treated overnight

# Compound, DC50
data = [
    ("O=C1CCC(N2Cc3cc(N4CCC(CN5CCC(n6cc7cc(NC(=O)c8cnn9cc(Cl)cnc89)c(OCC8CC8)cc7n6)CC5)CC4)ccc3C2=O)C(=O)N1 (stereo not drawn)", "< 10 nM"),
    ("O=C1CCC(N2C(=O)c3ccc(N4CCC(CN5CCC(N6Cc7cc(NC(=O)c8cnn9cccnc89)c(N8CCC(N9CCC9)CC8)cc7C6=O)CC5)CC4)cc3C2=O)C(=O)N1 (stereo not drawn)", "< 10 nM"),
    ("O=C1CCC(N2C(=O)c3ccc(N4CC(CN5CCC(N6Cc7cc(NC(=O)c8cnn9cccnc89)c(N8CCC(N9CCC9)CC8)cc7C6=O)CC5)C4)cc3C2=O)C(=O)N1 (stereo not drawn)", "10 to 50 nM"),
    ("COc1cc2nn(C3CCN(CC4CN(c5ccc6c(c5)C(=O)N(C5CCC(=O)NC5=O)C6=O)C4)CC3)cc2cc1NC(=O)c1cnn2cc(Cl)cnc12 (stereo not drawn)", "< 10 nM"),
    ("O=C1CCC(N2C(=O)c3ccc(C#CCN4CCC(n5cc6cc(NC(=O)c7cnn8cccnc78)c(OCC7CC7)cc6n5)CC4)cc3C2=O)C(=O)N1 (stereo not drawn)", "≥ 100 nM"),
    ("O=C1CCC(N2C(=O)c3ccc(N4CCC(CN5CCC(N6Cc7cc(NC(=O)c8cnn9cccnc89)c(N8CCOCC8)cc7C6=O)CC5)CC4)cc3C2=O)C(=O)N1 (stereo not drawn) [Example 32]", "< 10 nM"),
]
